Test: activity coefficient (dimensionless); of the first substance listed, at infinite dilution; xn = mol fraction of the nth substance listed
Conditions: 333.15 K; Liquid; Chromatography; x1 = 0
# activity coefficient >= 1 gives T, anything below gives F

compound	class
CCCCCCC [heptane] + CN(C)c1cc[n+](COCCCOC[n+]2ccc(N(C)C)cc2)cc1.O=S(=O)([N-]S(=O)(=O)C(F)(F)F)C(F)(F)F.O=S(=O)([N-]S(=O)(=O)C(F)(F)F)C(F)(F)F	T
C1CCCCCC1 [cycloheptane] + CCCOC[n+]1ccn(C)c1.N#C[N-]C#N	T
CCC(C)=O [butanone] + CCCOC[n+]1ccn(Cc2ccccc2)c1.N#C[N-]C#N	F
ClCCl [dichloromethane] + CCCCCCCCn1cc[n+](COCCCOC[n+]2ccn(CCCCCCCC)c2C)c1C.N#C[N-]C#N.N#C[N-]C#N	F
C1COCCO1 [1,4-dioxane] + N#C[N-]C#N.N#C[N-]C#N.c1ccc(Cn2cc[n+](COCCCOC[n+]3ccn(Cc4ccccc4)c3)c2)cc1	T
CCCCCCC [heptane] + CCCOC[n+]1ccc(N(C)C)cc1.O=S(=O)([N-]S(=O)(=O)C(F)(F)F)C(F)(F)F	T
Cc1ccccc1C [1,2-dimethylbenzene] + Cn1cc[n+](COCCCOC[n+]2ccn(C)c2)c1.N#C[N-]C#N.N#C[N-]C#N	T
C#CCCCC [1-hexyne] + CCCCCCCCn1cc[n+](COCCCOC[n+]2ccn(CCCCCCCC)c2C)c1C.O=S(=O)([N-]S(=O)(=O)C(F)(F)F)C(F)(F)F.O=S(=O)([N-]S(=O)(=O)C(F)(F)F)C(F)(F)F	T
CC(C)O [propan-2-ol] + CCCCCCCCn1cc[n+](COCCC)c1C.O=S(=O)([N-]S(=O)(=O)C(F)(F)F)C(F)(F)F	T
Cc1ccc(C)cc1 [1,4-dimethylbenzene] + CCCOC[n+]1ccn(Cc2ccccc2)c1.N#C[N-]C#N	T
CCOCC [diethyl ether] + CCCCCCCCn1cc[n+](COCCC)c1C.O=S(=O)([N-]S(=O)(=O)C(F)(F)F)C(F)(F)F	T
C[N+](=O)[O-] [nitromethane] + CCCOC[n+]1ccn(Cc2ccccc2)c1.N#C[N-]C#N	F
C#CCCCCC [1-heptyne] + Cn1cc[n+](COCCCOC[n+]2ccn(C)c2)c1.N#C[N-]C#N.N#C[N-]C#N	T
CCC[N+](=O)[O-] [1-nitropropane] + CCCCCCCCn1cc[n+](COCCCOC[n+]2ccn(CCCCCCCC)c2C)c1C.O=S(=O)([N-]S(=O)(=O)C(F)(F)F)C(F)(F)F.O=S(=O)([N-]S(=O)(=O)C(F)(F)F)C(F)(F)F	F
c1ccccc1 [benzene] + CCCOC[n+]1ccn(C)c1.N#C[N-]C#N	T
c1ccsc1 [thiophene] + CCCCCCCCn1cc[n+](COCCCOC[n+]2ccn(CCCCCCCC)c2C)c1C.O=S(=O)([N-]S(=O)(=O)C(F)(F)F)C(F)(F)F.O=S(=O)([N-]S(=O)(=O)C(F)(F)F)C(F)(F)F	F
C1COCCO1 [1,4-dioxane] + CCCOC[n+]1ccc(N(C)C)cc1.O=S(=O)([N-]S(=O)(=O)C(F)(F)F)C(F)(F)F	F
Cc1cccc(C)c1 [1,3-dimethylbenzene] + CCCCCCCCn1cc[n+](COCCCOC[n+]2ccn(CCCCCCCC)c2C)c1C.O=S(=O)([N-]S(=O)(=O)C(F)(F)F)C(F)(F)F.O=S(=O)([N-]S(=O)(=O)C(F)(F)F)C(F)(F)F	F
CCCCCCCCCCC [undecane] + N#C[N-]C#N.N#C[N-]C#N.c1ccc(Cn2cc[n+](COCCCOC[n+]3ccn(Cc4ccccc4)c3)c2)cc1	T
ClC(Cl)(Cl)Cl [tetrachloromethane] + Cn1cc[n+](COCCCOC[n+]2ccn(C)c2)c1.O=S(=O)([N-]S(=O)(=O)C(F)(F)F)C(F)(F)F.O=S(=O)([N-]S(=O)(=O)C(F)(F)F)C(F)(F)F	T
CCC(=O)CC [pentan-3-one] + CCCCCCCCn1cc[n+](COCCC)c1C.N#C[N-]C#N	F
C=CCCCC [hex-1-ene] + CCCCCCCCn1cc[n+](COCCCOC[n+]2ccn(CCCCCCCC)c2C)c1C.N#C[N-]C#N.N#C[N-]C#N	T
Cc1ccccc1C [1,2-dimethylbenzene] + CCCCCCCCn1cc[n+](COCCC)c1C.N#C[N-]C#N	T
CCc1ccccc1 [ethylbenzene] + Cn1cc[n+](COCCCOC[n+]2ccn(C)c2)c1.O=S(=O)([N-]S(=O)(=O)C(F)(F)F)C(F)(F)F.O=S(=O)([N-]S(=O)(=O)C(F)(F)F)C(F)(F)F	T
CCC[N+](=O)[O-] [1-nitropropane] + CCCOC[n+]1ccn(C)c1.O=S(=O)([N-]S(=O)(=O)C(F)(F)F)C(F)(F)F	F
